Just for reference, the supplement of paper PMC12764529 is where these values come from.

- protocol_description: folding stability dG unfold (combined trypsin and chymotrypsin); higher = more stable
Entries and their folding stability dG unfold
Hi! Could you send only the number? It should be in kcal/mol, unit omitted.

1) SAGAKAEPGPSGRLRIYLPDEPIELDVTEDGTVTLTFPNGEKVEFPVEKEKAALVLAELNALGAVVVPQSAG [r5_753_TrMRF]; 0.712

Please look up its folding stability dG unfold: SAGDEALLERIRARAEAEAKAAGPDPTPLDYRVEVEPVEIDEETGTVKVRVTITAPDREVEREVTVPLVSAG [r5_53_JUSTAS] 0.0838

Please look up its folding stability dG unfold: SAGGSAGGSSVPEGWEVEREKVLEAEIVGEDGPVLRVRLYRVRVRPVDGPPRYFFELDVDDVDSAGGSAGGS [r12_544_TrMRF] 2.74

Please look up its folding stability dG unfold: SAGGSAPVTEGPNSITVTRDLDPSESEEEVRALAEEILAALPADVSVSVEFDPETGTATITITFPGSAGGSA [r15_210_JUSTAS] 2.15

Please look up its folding stability dG unfold: SEKPEVTIKIEVEEREDGYLVVRVEVTFPEDPEKVELTLEMSREEAEELAKKLAEELPGVKVKVEIVELPSA [r9_374_TrROS_Hall] 2.44

Please look up its folding stability dG unfold: SAGGSAGGSAGGMSITISVPEKTATIEIPGLGKTITIPPGETITVPIPNVPPFKITTEPPSAGGSAGGSAGG [r11_939_JUSTAS] 0.732
